Tested on: soybeans (Glycine max.)
Experiment: Crop plant compatibility (greenhouse, visual scoring)
Format: in vivo
Conditions: pre-emergence or post-emergence method, various dosages; visual scoring four to five weeks after application
MEASUREMENT TYPE: damage to crops of leguminous plants, such as soybeans

CCOc1cc(Cl)nc(NC(=O)[N-]S(=O)(=O)c2ncccc2C2=NOCCO2)n1.[Na+] [I-22]: did not damage
COc1cc(OC)nc(NC(=O)NS(=O)(=O)c2ncccc2C2=NOCCO2)n1 [I-11]: did not damage
CCOc1nc(Cl)nc(NC(=O)[N-]S(=O)(=O)c2ncccc2C2=NOCCO2)n1.[Na+] [I-70]: did not damage
